Each entry below lists one item and its recorded GI50 value.
# System: UACC-62
# procedure.summary: NCI tumour cell line growth inhibition, 48 h
The source made the active and inactive calls. Cut-off read from the data, not from the text of the source: active = GI50 up to about 1.1 µM and inactive = higher.

These solved cases illustrate the format of a correct answer.
[
  {
    "compound": "C1CN1c1nc(N2CC2)nc(N2CC2)n1",
    "readout.type": "GI50",
    "result": "1.84 µM (inactive)"
  },
  {
    "compound": "COc1ccc(C2C3=C(COC3=O)OC(C)(C)Oc3cc4c(cc32)OCO4)cc1OC (stereo not drawn)",
    "readout.type": "GI50",
    "result": "34 µM (inactive)"
  },
  {
    "compound": "CC(=O)O[C@H]1C(=O)[C@@]2(C)C(C(OC(=O)c3ccccc3)[C@]3(O)CC(OC(=O)C(O)C(NC(=O)c4ccccc4)c4cccc(Cl)c4)C(C)=C1C3(C)C)[C@]1(OC(C)=O)CO[C@@H]1C[C@@H]2O (stereo partly drawn)",
    "readout.type": "GI50",
    "result": "2.33 µM (inactive)"
  },
  {
    "compound": "C=C(C)C(=O)CC[C@@H](C)[C@H]1[C@@H](OC2OC(CO)C(O)C(O)C2O)C[C@@]2(C)[C@@H]3C[C@H](O)C4C(C)(C)[C@@H](OC5OC(CO)C(O)C(O)C5O)CC[C@@]45C[C@@]35CC[C@]12C (stereo partly drawn)",
    "readout.type": "GI50",
    "result": "> 100 µM (inactive)"
  },
  {
    "compound": "COc1ccc2c(c1)CCc1c(-c3n[nH]c4c3CCc3cc(OC)ccc3-4)n[nH]c1-2",
    "readout.type": "GI50",
    "result": "23.5 µM (inactive)"
  }
]

Continue with the next compound.
Please look up its GI50: C=CC1(NC(=O)c2ccccc2)CCC(C(C)(C)C)CC1 (stereo not drawn)
26.6 µM (inactive)
